Known pIC50 of a selection of molecules
molecular target: C-X-C chemokine receptor type 3 (Rattus norvegicus); experiment: Ex vivo receptor occupancy of CXCR3 in rat blood assessed as inhibition of ITAC binding after 1 hr by flow cytometry
Sequence (Q9JII9 whole entry): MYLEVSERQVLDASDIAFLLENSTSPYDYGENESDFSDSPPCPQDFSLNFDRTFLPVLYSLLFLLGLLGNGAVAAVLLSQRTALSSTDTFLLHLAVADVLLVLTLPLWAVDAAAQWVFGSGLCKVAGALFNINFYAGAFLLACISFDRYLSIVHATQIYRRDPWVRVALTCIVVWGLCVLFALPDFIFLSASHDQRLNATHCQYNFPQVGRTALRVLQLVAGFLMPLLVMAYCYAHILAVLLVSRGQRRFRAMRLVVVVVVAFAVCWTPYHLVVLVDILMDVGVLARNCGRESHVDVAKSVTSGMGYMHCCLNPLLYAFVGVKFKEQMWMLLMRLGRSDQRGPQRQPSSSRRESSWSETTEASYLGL
Lab note — pIC50 values are minus log10 of concentrations in M.

Reference set, count: 3
*Q* Answer with the recorded pIC50 of CN1CCN(CCn2cc3c4c(cccc42)C2=C[C@@H](C(=O)N4CCCC4)CN(C(=O)Nc4ccccc4)[C@@H]2C3)CC1 only.
*A* 7.64

*Q* Answer with the recorded pIC50 of O=C([C@@H]1C=C2c3cccc4c3c(cn4CCN3CCOCC3)C[C@H]2N(C(=O)Nc2ccccc2)C1)N1CCCC1 only.
*A* 7.40

*Q* Answer with the recorded pIC50 of O=C([C@@H]1C=C2c3cccc4c3c(cn4CCO)C[C@H]2N(C(=O)Nc2ccccc2)C1)N1CCCC1 only.
*A* 8.15

Others:
*Q* Answer with the recorded pIC50 of O=C([C@@H]1C=C2c3cccc4[nH]cc(c34)C[C@H]2N(C(=O)Nc2ccccc2)C1)N1CCCC1 only.
*A* 5.48

====

target: Voltage-gated inwardly rectifying potassium channel KCNH2 (Homo sapiens); assay: Inhibition of human ERG by automated patch clamp assay
Sequence (Q12809 whole entry): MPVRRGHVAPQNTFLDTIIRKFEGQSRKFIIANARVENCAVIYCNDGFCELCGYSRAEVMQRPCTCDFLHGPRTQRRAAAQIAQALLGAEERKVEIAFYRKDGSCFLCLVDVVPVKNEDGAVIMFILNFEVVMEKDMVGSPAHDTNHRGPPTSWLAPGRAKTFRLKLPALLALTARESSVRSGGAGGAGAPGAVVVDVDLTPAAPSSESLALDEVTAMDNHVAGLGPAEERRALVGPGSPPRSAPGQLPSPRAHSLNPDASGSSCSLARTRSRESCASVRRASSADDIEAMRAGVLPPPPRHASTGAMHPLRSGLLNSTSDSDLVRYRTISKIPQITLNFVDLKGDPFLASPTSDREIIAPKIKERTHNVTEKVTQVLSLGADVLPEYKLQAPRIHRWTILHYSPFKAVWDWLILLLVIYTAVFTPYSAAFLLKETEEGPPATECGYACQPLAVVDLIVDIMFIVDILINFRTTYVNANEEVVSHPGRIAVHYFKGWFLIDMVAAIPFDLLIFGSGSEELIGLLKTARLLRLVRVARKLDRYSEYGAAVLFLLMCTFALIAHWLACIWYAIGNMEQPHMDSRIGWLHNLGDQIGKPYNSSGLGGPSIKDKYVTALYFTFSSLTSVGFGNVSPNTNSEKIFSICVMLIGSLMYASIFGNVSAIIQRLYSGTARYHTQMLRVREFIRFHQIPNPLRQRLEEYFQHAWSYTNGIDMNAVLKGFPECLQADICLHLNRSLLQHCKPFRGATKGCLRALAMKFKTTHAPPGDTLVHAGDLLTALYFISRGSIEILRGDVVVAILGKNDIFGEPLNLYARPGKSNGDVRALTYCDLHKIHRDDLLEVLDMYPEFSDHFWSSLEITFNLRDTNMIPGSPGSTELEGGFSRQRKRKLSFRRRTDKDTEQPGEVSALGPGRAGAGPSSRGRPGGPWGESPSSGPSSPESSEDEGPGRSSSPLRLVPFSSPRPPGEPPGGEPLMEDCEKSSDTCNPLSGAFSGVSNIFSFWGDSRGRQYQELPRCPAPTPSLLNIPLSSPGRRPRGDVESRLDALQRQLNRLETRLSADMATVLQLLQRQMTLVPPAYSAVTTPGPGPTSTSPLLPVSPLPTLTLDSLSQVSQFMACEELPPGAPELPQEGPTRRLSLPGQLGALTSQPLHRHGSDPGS
pIC50: −log10 of the molar value.
result_type: pIC50

*Q* Answer with the recorded pIC50 of CN(C)CCn1cc2c3c(cccc31)C1=C[C@@H](C(=O)N3CCCC3)CN(C(=O)Nc3ccccc3)[C@@H]1C2 only.
*A* < 4.52

====

molecular target: C-X-C chemokine receptor type 3 (Homo sapiens); assay: Antagonist activity at human CXCR3 expressed in mouse L1.2 cells assessed as inhibition of ITAC-induced calcium mobilization by FLIPR assay; assay type: functional, cell-based
Lab note - cut at 10 nM for IC50: 1.0 if strictly below, 0.0 if not.

Record excerpt, results attached:
*Q* Bench note: check whether O=C([C@@H]1C=C2c3cccc4[nH]cc(c34)C[C@H]2N(C(=O)NC2CCCCC2)C1)N1CCCC1 shows IC50 below 10 nM
*A* 0.0

*Q* Bench note: check whether O=C([C@@H]1C=C2c3cccc4[nH]cc(c34)C[C@H]2N(C(=O)Nc2ccccc2)C1)N1CC=CC1 shows IC50 below 10 nM
*A* 1.0

*Q* Bench note: check whether COc1ccc(NC(=O)N2C[C@H](C(=O)N3CCCC3)C=C3c4cccc5[nH]cc(c45)C[C@H]32)cc1 shows IC50 below 10 nM
*A* 0.0

*Q* Bench note: check whether O=C([C@@H]1C=C2c3cccc4c3c(cn4CCN3CCCCC3)C[C@H]2N(C(=O)Nc2ccccc2)C1)N1CCCC1 shows IC50 below 10 nM
*A* 1.0

*Q* Bench note: check whether O=C([C@@H]1C=C2c3cccc4[nH]cc(c34)C[C@H]2N(C(=O)Nc2ccccc2)C1)N1CCNCC1 shows IC50 below 10 nM
*A* 0.0

*Q* Bench note: check whether O=C([C@@H]1C=C2c3cccc4c3c(cn4CCN3CCCC3)C[C@H]2N(C(=O)Nc2ccccc2)C1)N1CCCC1 shows IC50 below 10 nM
*A* 1.0

*Q* Bench note: check whether O=C1CN(C(=O)[C@@H]2C=C3c4cccc5[nH]cc(c45)C[C@H]3N(C(=O)Nc3ccccc3)C2)CCN1 shows IC50 below 10 nM
*A* 0.0

*Q* Bench note: check whether O=C([C@@H]1C=C2c3cccc4[nH]cc(c34)C[C@H]2N(C(=O)Nc2ccccc2)C1)N1CCCCC1 shows IC50 below 10 nM
*A* 1.0

*Q* Bench note: check whether O=C([C@@H]1C=C2c3cccc4[nH]cc(c34)C[C@H]2N(C(=O)NC2CCCCCC2)C1)N1CCCC1 shows IC50 below 10 nM
*A* 0.0

*Q* Bench note: check whether O=C([C@@H]1C=C2c3cccc4[nH]cc(c34)C[C@H]2N(C(=O)Nc2cccs2)C1)N1CCCC1 shows IC50 below 10 nM
*A* 1.0

Others:
*Q* Bench note: check whether O=C([C@@H]1C=C2c3cccc4[nH]cc(c34)C[C@H]2N(C(=O)Nc2ccccc2)C1)N1CC[C@@H](O)C1 shows IC50 below 10 nM
*A* 0.0

*Q* Bench note: check whether CC1CN(C(=O)[C@@H]2C=C3c4cccc5[nH]cc(c45)C[C@H]3N(C(=O)Nc3ccccc3)C2)CC(C)O1 (stereo partly specified) shows IC50 below 10 nM
*A* 0.0

*Q* Bench note: check whether O=C([C@@H]1C=C2c3cccc4[nH]cc(c34)C[C@H]2N(C(=O)NC2CCCC2)C1)N1CCCC1 shows IC50 below 10 nM
*A* 0.0

*Q* Bench note: check whether O=C([C@@H]1C=C2c3cccc4[nH]cc(c34)C[C@H]2N(C(=O)Nc2ccccc2)C1)N1CCCCCC1 shows IC50 below 10 nM
*A* 0.0

*Q* Bench note: check whether CN(C)Cc1ccccc1NC(=O)N1C[C@H](C(=O)N2CCCC2)C=C2c3cccc4[nH]cc(c34)C[C@H]21 shows IC50 below 10 nM
*A* 0.0

*Q* Bench note: check whether CN1CCN(CCn2cc3c4c(cccc42)C2=C[C@@H](C(=O)N4CCCC4)CN(C(=O)Nc4ccccc4)[C@@H]2C3)CC1 shows IC50 below 10 nM
*A* 1.0

====

assay: Oral bioavailability in Sprague-Dawley rat at 3 mg/kg; format: ADME, organism-based; settings: in vivo
result_type: bioavailability (%)
The figure you give is taken to be in %; do not add the unit.

*Q* Answer with the recorded bioavailability of CN(C)CCn1cc2c3c(cccc31)C1=C[C@@H](C(=O)N3CCCC3)CN(C(=O)Nc3ccccc3)[C@@H]1C2 only.
*A* 97

====

Known fraction unbound of a selection of molecules
assay: Fraction unbound in human serum; assay type: ADME, cell-free
// return a plain number; no unit text

Reference set, count: 2
*Q* Answer with the recorded fraction unbound of O=C([C@@H]1C=C2c3cccc4c3c(cn4CCO)C[C@H]2N(C(=O)Nc2ccccc2)C1)N1CCCC1 only.
*A* 0.08

*Q* Answer with the recorded fraction unbound of O=C([C@@H]1C=C2c3cccc4[nH]cc(c34)C[C@H]2N(C(=O)Nc2ccccc2)C1)N1CCCC1 only.
*A* 0.03

Switching to the query record.
*Q* Answer with the recorded fraction unbound of CN(C)CCn1cc2c3c(cccc31)C1=C[C@@H](C(=O)N3CCCC3)CN(C(=O)Nc3ccccc3)[C@@H]1C2 only.
*A* 0.07

====

Known fraction unbound of a selection of compounds
experiment: Fraction unbound in rat serum; type: ADME, cell-free
// return a plain number; no unit text

*Q* Answer with the recorded fraction unbound of O=C([C@@H]1C=C2c3cccc4[nH]cc(c34)C[C@H]2N(C(=O)Nc2ccccc2)C1)N1CCCC1 only.
*A* 0.04

*Q* Answer with the recorded fraction unbound of O=C([C@@H]1C=C2c3cccc4c3c(cn4CCO)C[C@H]2N(C(=O)Nc2ccccc2)C1)N1CCCC1 only.
*A* 0.07

Switching to the query record.
*Q* Answer with the recorded fraction unbound of CN(C)CCn1cc2c3c(cccc31)C1=C[C@@H](C(=O)N3CCCC3)CN(C(=O)Nc3ccccc3)[C@@H]1C2 only.
*A* 0.04

====

target: C-X-C chemokine receptor type 3 (Homo sapiens, UniProt P49682); experiment: Displacement of radiolabeled CXCL11 from human CXCR3 expressed in CHO cells by scintillation proximity assay; type: cell-based
Sequence (P49682 whole entry): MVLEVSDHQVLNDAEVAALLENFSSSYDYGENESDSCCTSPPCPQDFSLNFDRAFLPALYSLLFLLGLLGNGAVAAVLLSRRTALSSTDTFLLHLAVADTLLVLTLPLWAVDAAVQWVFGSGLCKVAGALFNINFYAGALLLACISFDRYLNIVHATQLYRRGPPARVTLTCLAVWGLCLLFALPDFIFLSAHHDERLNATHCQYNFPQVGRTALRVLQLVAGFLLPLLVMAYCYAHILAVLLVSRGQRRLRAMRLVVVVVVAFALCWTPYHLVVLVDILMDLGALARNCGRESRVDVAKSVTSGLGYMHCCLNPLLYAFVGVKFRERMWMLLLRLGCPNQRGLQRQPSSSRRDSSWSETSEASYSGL
Known pIC50 of a selection of molecules
Lab note — pIC50 values are minus log10 of concentrations in M.

Reference set, count: 8
*Q* Answer with the recorded pIC50 of O=C([C@@H]1C=C2c3cccc4[nH]cc(c34)C[C@H]2N(C(=O)Nc2ccccc2)C1)N1CCS(=O)(=O)CC1 only.
*A* 6.40

*Q* Answer with the recorded pIC50 of CN(C)C(=O)[C@@H]1C=C2c3cccc4[nH]cc(c34)C[C@H]2N(C(=O)Nc2ccccc2)C1 only.
*A* 7.55

*Q* Answer with the recorded pIC50 of COc1cccc(NC(=O)N2C[C@H](C(=O)N3CCCC3)C=C3c4cccc5[nH]cc(c45)C[C@H]32)c1 only.
*A* 6.56

*Q* Answer with the recorded pIC50 of CC(=O)N1CCN(C(=O)[C@@H]2C=C3c4cccc5[nH]cc(c45)C[C@H]3N(C(=O)Nc3ccccc3)C2)CC1 only.
*A* 6.08

*Q* Answer with the recorded pIC50 of O=C([C@@H]1C=C2c3cccc4[nH]cc(c34)C[C@H]2N(C(=O)Cc2ccccc2)C1)N1CCCC1 only.
*A* 6.37

*Q* Answer with the recorded pIC50 of O=C([C@@H]1C=C2c3cccc4[nH]cc(c34)C[C@H]2N(C(=O)NC2CCCCC2)C1)N1CCCC1 only.
*A* 7.62

*Q* Answer with the recorded pIC50 of O=C([C@@H]1C=C2c3cccc4[nH]cc(c34)C[C@H]2N(C(=O)Nc2ccccc2)C1)N1CC=CC1 only.
*A* 7.77

*Q* Answer with the recorded pIC50 of O=C([C@@H]1C=C2c3cccc4[nH]cc(c34)C[C@H]2N(C(=O)Nc2ccccc2)C1)N1CCCC1 only.
*A* 8.30

Others:
*Q* Answer with the recorded pIC50 of CCNC(=O)[C@@H]1C=C2c3cccc4[nH]cc(c34)C[C@H]2N(C(=O)Nc2ccccc2)C1 only.
*A* 6.42

*Q* Answer with the recorded pIC50 of O=C([C@@H]1C=C2c3cccc4[nH]cc(c34)C[C@H]2N(C(=O)NCc2ccccc2)C1)N1CCCC1 only.
*A* 5.66
